Assay: soluble fraction after stress (log2 fold change); higher = more stays soluble; pooled small domains, quantitative proteomics
Conditions: stress: 50 degC
Would you kindly list soluble fraction (log2) for each of these sequences?
# answer = number (no unit)

input: Quick check: soluble fraction (log2) of HMSDAQIKASINDLWFKYNLETFAKLNLNVNQGRVLVTGIVQNPEHRLEAIRLVWTVDGVQQVINEIQVAE ?
output: -0.795

input: Quick check: soluble fraction (log2) of HMYSINKTEFGERIKSAREELKMTQTQLAQLLKTSQTTVAKYEHGEQIPRADVLATISKATGKSTDWLLFG ?
output: -0.017

input: Quick check: soluble fraction (log2) of HMDSTLDLVATQGGRLDQVLAEMIPEHSRNRLQHWIKAGRVLVDGQPVLEPKHKIYGGEDLAVRVD ?
output: 0.278

input: Quick check: soluble fraction (log2) of HMKMSLKENLLELLQKSSGEFLSGERAAETLGVSRTAVWKAVTSLKNEGYNIESVTNRGYRFS ?
output: -0.0145

input: Quick check: soluble fraction (log2) of HMTKEEKEKREKYEKLMKKADELVTAKNHKEAVTVLGQAKAYANPQQTKEIEEKIKAQTAELDKG ?
output: 0.239

input: Quick check: soluble fraction (log2) of HMSSNLSLHKEGNKIVILGLEGKSVIEVYDLMGRLLSSQTNYNPKQEITLLQPVIIRVTDTQQTKSFKV ?
output: -0.83

input: Quick check: soluble fraction (log2) of HMERFRQVNAGMTRDDIYQLLGKPTEKTPFPLKNEEVWSWRHQADGQTVALFNIHLDPDGRVTTTSQSMDL ?
output: 0.021

input: Quick check: soluble fraction (log2) of HMGSKDLPFSTFMSEIDKGNITSVDIRGNEIQGTFANGTKFRTYSPNYPNLVEKLNGKGVSITAGPV ?
output: 0.215

input: Quick check: soluble fraction (log2) of HMGVRVEVDAVTPPGAMASGSVVFSDGESKKWSVDQFGRLAMTGGAPDYKPSDQDVMEFQQQLEQSL ?
output: 0.054

input: Quick check: soluble fraction (log2) of HMVDFVNVVVPVKANYGGEAVVEFLDERLSEFGTEGIYRIELQGETMENPSPDYSQLKAKYHISEIVDRT ?
output: 0.08

input: Quick check: soluble fraction (log2) of HMTLDSLEKLSVNDLEKMLVNMPVGYKTIFLLSVIDEYSHKEIGELLGITPETSRSQLFRAIKWIKTNIF ?
output: -0.428

input: Quick check: soluble fraction (log2) of HMIMGTITKRTNPSGAIVYRAQIRIKKAGYPDFSESRTFSKKAMAVEWLKLREAELEMHPELLFR ?
output: -1.34

---

Test: soluble fraction after stress (log2 fold change); higher = more stays soluble; pooled small domains, quantitative proteomics
Settings: stress: 50 degC
experimentalEndpoint: soluble fraction (log2)

input: Quick check: soluble fraction (log2) of HMAPLRTQYVNVNYANAAEIKTLISGADKEVGSLLSERGSVVVDKRTNTLIIQDTQARLNDIGDLIEQLD ?
output: -0.0505

input: Quick check: soluble fraction (log2) of HMKDYKTIFQELIQKKHKTSPIYKSYEYNDMFKAEVYVNDKSFADGIGKSKKEAETDAAKKALEKIEMA ?
output: 0.0966

input: Quick check: soluble fraction (log2) of HMNTTTTKVVSVSSLNMRSGPSTSYNIIEVLTKDTQVEVISVEDGWAKIKYNSKTGYVSNQYLSDKK ?
output: 0.0146

input: Quick check: soluble fraction (log2) of HMLMRSPDFLIGWFQNLVAKRETFNDQVQAKNLIEAGKQHIQGEDFDRLLEVNRRLFSLLPQREQE ?
output: 0.215

input: Quick check: soluble fraction (log2) of HMSDDIPVHYRLDVNDAARALKLLTDNGFSAETAESGLNVYMTRLQSAEAARLLVENNIAVYGLTAV ?
output: 0.0267

input: Quick check: soluble fraction (log2) of HMARKISVEALGKYFPNSPMLAAAVAVTGVMKKDEFIHEMRASYKHKFAKKPEVIDGNMKALTMTFEA ?
output: -0.126

input: Quick check: soluble fraction (log2) of HMAFAVWVKLVAIGPNYAQLEIEQGTQRNVRTLRPGDDAPEGVRLLSLTPTHAEVQANGIARKLALGQGMA ?
output: -0.381

input: Quick check: soluble fraction (log2) of HMNKVAQFYRELVSTLSERLRNGERDIDALVEQARVRISQSGELTQSEIENVIRAVRRDLEEFALSYEE ?
output: 0.0926

input: Quick check: soluble fraction (log2) of HMAPVTPEERAQAMEEYKAMVTIEGYTPPKNIIEQNYKRGLWSETMLNMAVTKGAITEAEKLEIMN ?
output: 0.124

input: Quick check: soluble fraction (log2) of HMAEPIAAGKYTVSTSGSVLNMRVSPDADSQVLEKIPNGTIVEVTKSVLGWAYVTYNSAQGWVSSAYLV ?
output: 0.15

input: Quick check: soluble fraction (log2) of HMSLPALALRQADSLAFKQVIYHDRVVPFNTLARDFVLKLTGKPSYGGMTPEQVVGGWLLRPEVWQNEPM ?
output: -0.0387

input: Quick check: soluble fraction (log2) of HMSELTKEIGKRIHDFRKSRGLNQEELARLIYKSKATLSKYEKGEIAIDLDTLKQLALALHVRMEQLLPPT ?
output: -0.0472

input: Quick check: soluble fraction (log2) of HMNVNSQQINDLEKSIQKFFDKDIKNYLNQNLSNDRMISKNEIDKIILLYYGSDKEPTLDEIKSIFN ?
output: -0.0913

input: Quick check: soluble fraction (log2) of HMKSSISKNWNPSKDAIEILTRAGIDQEFLENLIPEFVIYWIERSDVLISYNSKFIEHARLKWAQHTAEIQ ?
output: -0.0223

input: Quick check: soluble fraction (log2) of HMGKNIQAIRYKNNMTQDQVVAKLNLMGISITKSTYAKLETNRMNIKASELVALAKLFHTDINAFFSG ?
output: -3.24

input: Quick check: soluble fraction (log2) of HMAGPRRRLLDAAIDRAAERGLGDLSLRALAEELGTSHRMLSHHFGSKDGLWLAIVEEVERRQ ?
output: -0.952

input: Quick check: soluble fraction (log2) of HMSLTAQVFTDRGKVLLSENKFTEAIDQFTKALAMDKVYIEALNRRIEAYQHLGLTELAAKDEALLGTL ?
output: -0.755

---

Assay: soluble fraction after stress (log2 fold change); higher = more stays soluble; pooled small domains, quantitative proteomics
Details: stress: 50 degC
experimentalEndpoint: soluble fraction (log2)
# answer = number (no unit)

input: Quick check: soluble fraction (log2) of HMHMKTIEWDSLVLIMYKDMKYLKRINEGQSFHGKGGMLNYADLIGKTYGIRFGQYEIFEPSLEDIVMYG ?
output: -0.126

input: Quick check: soluble fraction (log2) of HMDSIDIDAETKSLGPNAPQIIKGIKEWGQGLVAKGVWSDQDFEEFKVFAATANGINALNKVRKFY ?
output: -0.154

input: Quick check: soluble fraction (log2) of HMLVATFGPTTGWEGREIIWDVDRFILVGHGAVPAAGVLDYDRRGQLIWAQPELRAWVVEVDRWETG ?
output: -1.97

input: Quick check: soluble fraction (log2) of HMFAQDQLFKKDNSKVDVKILEINTTEIKYKLFTYQDGPTITVAKKDVALIIYQNGVHEVIT ?
output: -2.15

---

Assay: soluble fraction after stress (log2 fold change); higher = more stays soluble; pooled small domains, quantitative proteomics
Settings: stress: 50 degC
experimentalEndpoint: soluble fraction (log2)
# answer = number (no unit)

input: Quick check: soluble fraction (log2) of HMRNSVQREWIYDYIQRQDAHLSADEIYEGLLKEGKNISLATVYRNLSILVDEYKIASVMTDSKKQVYDK ?
output: -1.23

input: Quick check: soluble fraction (log2) of HMKGEIEELLYEEVTKDNNTTFLRIYIKLNDEYNTLLNLGIIGIKTEEKVNELVNLGYKKVL ?
output: -2.45

input: Quick check: soluble fraction (log2) of HMQEEMIRGDIKLNTVMQTVHLAVGTETERNWQPVETTAKEFELLKLLMENPGVTLKKEYLFHMLI ?
output: -0.102

---

Assay: soluble fraction after stress (log2 fold change); higher = more stays soluble; pooled small domains, quantitative proteomics
Details: stress: 50 degC
Would you kindly list soluble fraction (log2) for each of these sequences?
# answer = number (no unit)

input: Quick check: soluble fraction (log2) of HMETPEIPGLTPRQVEIMLLVGKGYSNKEIARFLTISPETVKTHLKEVFLRFGLRNRVEAIDFTRQNGL ?
output: -0.363

input: Quick check: soluble fraction (log2) of HMSMNGNMIHATVIWKGRYFLVKMFFPQLTKPKRAEVQAQIEKAYPGSRVASYHITDYKPGEQFLHV ?
output: -1.51

input: Quick check: soluble fraction (log2) of HMELDLPLEELGLSTRVLHSLKEEGIESVRALLALNLKDLKNIPGIGERSLEEIKEALEKKGFTLK ?
output: -0.0498

input: Quick check: soluble fraction (log2) of HMDLKHNQITMRELLRNKQAYLLLYKEFPMFMTPAILQNIRPLTLQQIIQMVRPYISRPKLNMLLEQLENI ?
output: -0.124

input: Quick check: soluble fraction (log2) of HMAGAITEREVEVLELLSRGLGNKEIAKELFVSEATVKSHLSHIYTKLAVDTRAGAVAAAIERRIIRAWR ?
output: -1.92

input: Quick check: soluble fraction (log2) of HMLERPLKLKSHYVSAINEKVAVQFQAGEERKSIMGTLTEVNQDTIVIDDRGSVTEIPFKSIIRAKTVF ?
output: 0.258

input: Quick check: soluble fraction (log2) of HMSDTFENILQRLIKATGRKNASEMANALGLSPQSVYSAKTKGKIPPAWIFAAAERFNASADWIYFGY ?
output: -1.01

input: Quick check: soluble fraction (log2) of HMLKPIHKDWSPNGDAKEILLKAGITEEFIQKELPEFIMYWSERNEESDIWNSKFIAHIRRRWGRFS ?
output: -1.14

input: Quick check: soluble fraction (log2) of HMWSNTAVIDRIRQLHEEGQPISSQSVQVNHKSLYMAAIKRFRGWKRAVEAAGIDYRQIRLR ?
output: -1.92

input: Quick check: soluble fraction (log2) of HMLSTNDYNENKNKLIKDFEIKFIIKHLKLNKGNVAATARSINFHPVSLRQKIAKLGIDVDEVMAG ?
output: -1.84

input: Quick check: soluble fraction (log2) of HMVLALRGIVQGGAEPLVILSDGRTSQSLAVGERFLAYEVVEIGRTGVRLRGPEGEIWLAMASF ?
output: -0.322

input: Quick check: soluble fraction (log2) of HMEIIFVEHKVRPGESVWLIARKYKVKKNHILAVNNLSEKSIIRPKQILKIPTSGYDQYKKSVE ?
output: -3.22

input: Quick check: soluble fraction (log2) of HMEQIFTELIMDGRVLGENLHRMGVDETWLLRQLRQQGYHSAREVFLAVADANKQVAVYPVS ?
output: -0.308

input: Quick check: soluble fraction (log2) of HMGNIITQEAAVKLAQDRVPNATLVKIEYDFDDGRPVYEGELREGRWEYEFEIDAATGEFLKWEKD ?
output: 0.04

input: Quick check: soluble fraction (log2) of HMPVYEEEVPAALDGQRLDRVVAMVTGLSRSEVGALLAAGAVTVDGTTPAKGSVRLAAGSIVSVTVS ?
output: -0.145

input: Quick check: soluble fraction (log2) of HMYRPQQEFTMRDLFQNNLNGSESASVRRDALGAELGIGYGNAKRFLERLNHYGVSREEFTAALEKLESE ?
output: -0.224

input: Quick check: soluble fraction (log2) of HMKLVTIPNVIGKTKEDAMKTLKDLGVTVTVETKESEKDDGTVIAQSKAEGTKLTAGENVTITVSKKKK ?
output: 0.139

input: Quick check: soluble fraction (log2) of HMKFYIHEIIGFNAVDKVAGIVGKVININEDSPQKKLVVNYNGKEVFIPLVDEIVRKIDKQKNEVLITMP ?
output: 0.155

input: Quick check: soluble fraction (log2) of HMPSEAVQNIIGNVKSKRRVATIGQARGLASNVIKEGKFDNVSNTAMVNRLIDLGIISNSIGYQ ?
output: 0.115

input: Quick check: soluble fraction (log2) of HMARKFQKDTGYLNKKERTWLLDFFPSLKKYLYTGAYIRSIIVVESNVTYTDKELPSNYTFTYKFA ?
output: -0.252

input: Quick check: soluble fraction (log2) of HMSVIKERLTEFLTYKGIGQIKFAEAAGLSRGFVNVLGDGISSKSLNKISQAFPELNTLWLTTGEGEML ?
output: -1.91

input: Quick check: soluble fraction (log2) of HMQDRDKNVPAGKELLDNEIARLNMSLKQVEQFALPRYNLKTLEDLYSGIGSGDIRLNHLINFLQSKLI ?
output: -0.135

input: Quick check: soluble fraction (log2) of HMGTISKRINPSGTTVYRAVIRIRKNGYPNFTESRTFSKKSMAAEWVKRREAEIELNPDILFG ?
output: -2.13
